The measurements presented in this section are drawn from PubChem BioAssay AID2060887.

- Tested on: 782815-120-R-J1-PDC complex spheroid viability;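 further: spheroids exposed to compounds for 7 days before reading; 100% = DMSO vehicle control viability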
- measurement-protocol: Anticancer human tumor 782815-120-R-J1-PDC patient-derived colon adenocarcinoma cell line growth inhibition [RAS]
- condition-parameters: second compound 0.1 µM; first compound 0.1 µM; active compounds read low
This section presents molecules with their documented viability, T/C values.
State the answer as a number, implicitly in %.

Item under review: Nc1ccn(C2OC(CO)C(O)C2(F)F)c(=O)n1 (stereo not given) + C=CC(=O)N1CCN(c2nc(OCC3CCCN3C)nc3c(F)c(-c4nc(N)cc(C)c4C(F)(F)F)c(Cl)cc23)C(C)C1 . Reported viability, T/C? 41.3

Item under review: CC(C)n1nc(-c2ccc3oc(N)nc3c2)c2c(N)ncnc21 + C#Cc1c(F)ccc2cc(O)cc(-c3ncc4c(N5CC6CCC(C5)N6)nc(OCC56CCCN5CC(F)C6)nc4c3F)c12 . Reported viability, T/C? 81.6
